# TARGET ENTITY: T1, human GIP receptor (human, UniProt P48546 22-466)
# T1 sequence (looked up): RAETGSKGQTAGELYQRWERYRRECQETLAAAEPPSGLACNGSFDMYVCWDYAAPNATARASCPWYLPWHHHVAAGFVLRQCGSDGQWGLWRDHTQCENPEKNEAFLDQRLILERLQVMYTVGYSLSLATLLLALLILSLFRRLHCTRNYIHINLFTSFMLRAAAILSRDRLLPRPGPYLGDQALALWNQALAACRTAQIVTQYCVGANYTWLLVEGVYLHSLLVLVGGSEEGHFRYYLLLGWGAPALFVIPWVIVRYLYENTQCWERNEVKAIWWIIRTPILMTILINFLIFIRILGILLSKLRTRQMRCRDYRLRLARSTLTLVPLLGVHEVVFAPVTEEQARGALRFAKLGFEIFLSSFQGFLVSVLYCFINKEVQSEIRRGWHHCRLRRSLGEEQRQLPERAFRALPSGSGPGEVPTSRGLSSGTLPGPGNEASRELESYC
# ASSAY SUMMARY: cell-based or functional assay
*1 amine or outer side, *2 acyl side, *3 side chain or, on linkers, in order; H or OH if unused. Where no end group is shown, it is not given here. Side-chain parts run from the residue outwards. [ ]: non-standard residue; d: D form. The star is where a group is joined. αMePhe(2-F) = C[C@](N)(Cc1ccccc1F)C(=O)O; γGlu = O=C(O)[C@H](CCC(=O)[*:2])N[*:1]; C14 diacid = O=C(O)CCCCCCCCCCCCC(=O)*; αMeY = C[C@](N)(Cc1ccc(O)cc1)C(=O)O; αMeF = C[C@](N)(Cc1ccccc1)C(=O)O; αMeL = CC(C)C[C@](C)(N)C(=O)O; Orn = NCCC[C@H](N)C(=O)O; AEEA = NCCOCCOCC(=O)O; Aib = CC(C)(N)C(=O)O
ASSAY ENDPOINT: EC50, cAMP

>  <BINDER>
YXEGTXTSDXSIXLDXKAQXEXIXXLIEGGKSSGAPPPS (Aib2, αMeF(2F)6, 4Pal10, αMeL13, Orn16, Aib20, 1Nal22, D-Glu24, αMeY25, K17 and K31: K(AEEA2-(γ-Glu)-CO-(CH2)12-CO2H), C-terminal NH2) [Example 66]

>  <REPORTED>
0.0168 nM

$$$$
>  <BINDER>
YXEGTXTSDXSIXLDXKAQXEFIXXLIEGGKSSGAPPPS (Aib2, αMeF(2F)6, 4Pal10, αMeL13, Orn16, Aib20, D-Glu24, αMeY25, K17 and K31: K((εK)-(γ-Glu)-CO-(CH2)12-CO2H), C-terminal NH2) [Example 38]

>  <REPORTED>
0.0155 nM

$$$$
>  <BINDER>
Y[Aib]EGT[αMePhe(2-F)]TSDK([AEEA-AEEA-γGlu-C14 diacid])SI[αMeL]LD[Orn]IAQ[Aib]E[αMeF]IK([AEEA-AEEA-γGlu-C14 diacid])[αMeY]LIEGGPSSGAPPPS-NH2 [Example 110]

>  <REPORTED>
0.0417 nM

$$$$
>  <BINDER>
YXEGTXTSDXSIXLDXKAQXEFIGXLIEGGKSSGAPPPS (Aib2, αMeF(2F)6, 4Pal10, αMeL13, Orn16, Aib20, αMeY25, K17 and K31: K(AEEA2-(γ-Glu)-CO-(CH2)12-CO2H), C-terminal NH2) [Example 104]

>  <REPORTED>
0.0361 nM

$$$$
>  <BINDER>
YXEGTXTSDXSIXLDXKAQXEFIXXLIEGKPSSGAPPPS (Aib2, αMeF(2F)6, 4Pal10, αMeL13, Orn16, Aib20, D-Glu24, αMeY25, K17 and K30: K(AEEA2-(γ-Glu)-(4-(4-tert-butylphenyl)butanoyl)), C-terminal NH2) [Example 134]

>  <REPORTED>
0.0238 nM

$$$$
>  <BINDER>
YXEGTXTSDXSIXLDXKAQXEFIXXLIXGGKSSGAPPPS (Aib2, αMeF(2F)6, 4Pal10, αMeL13, Orn16, Aib20, D-Glu24, αMeY25, Orn28, K17 and K31: K(AEEA2-(γ-Glu)-CO-(CH2)12-CO2H), C-terminal NH2) [Example 151]

>  <REPORTED>
0.0197 nM

$$$$
